target: human Siglec-7 expressed on human cells (primary monocytes, dendritic cells, macrophages, NK cells, … (human, UniProt Q9Y286 19-467)); test: cell-based or functional assay
Sequence (Q9Y286 19-467): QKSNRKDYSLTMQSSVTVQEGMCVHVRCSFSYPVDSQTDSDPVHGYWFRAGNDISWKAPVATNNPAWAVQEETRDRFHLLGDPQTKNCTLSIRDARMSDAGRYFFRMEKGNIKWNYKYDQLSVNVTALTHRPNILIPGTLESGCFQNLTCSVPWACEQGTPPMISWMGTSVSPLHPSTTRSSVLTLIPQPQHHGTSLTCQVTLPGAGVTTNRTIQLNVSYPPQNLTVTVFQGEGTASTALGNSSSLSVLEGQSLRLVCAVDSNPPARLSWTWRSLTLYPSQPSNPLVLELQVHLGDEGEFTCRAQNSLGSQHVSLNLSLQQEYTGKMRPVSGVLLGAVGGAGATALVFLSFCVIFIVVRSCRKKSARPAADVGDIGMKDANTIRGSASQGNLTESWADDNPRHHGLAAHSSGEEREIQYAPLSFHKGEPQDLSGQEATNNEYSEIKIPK
Percent Siglec-7 Surface Expression, DCs under 20% gets T, anything at or over 20% gets F.

Exam item: Does the reported Percent Siglec-7 Surface Expression, DCs of anti-Siglec-7 antibody 10B5 (antibody, V domains shown, that light chain holds several Z and differs in its CDRs from S7-10B5.1 / 10B5L1; also called S7-10B5; mAb S7-10B5) VH: QVHLQQSGPELVKPGASVKISCKASGYAFTNCWMNWVRQRPGKGLDWIGRIFPGNGHTNYSGKFKDKATLTEDKSSSTAYMQLSSLTSEDSAVYFCARDYSDYYFDYWGQGTTLTVSS VL: DVQMTQTTSSLSASLGDRVTISCRASQDINTYLNWYQQKPDGTVKLLIYYTSRLHSGVPSRFSGSGSGTDYSLTISNLEQEDIATYFCQQGNTLPWTFGGGTKLEIK stay below 20%?
Marked response: T

Exam item: Please let me know if anti-Siglec-7 antibody 4A1 (antibody, V domains shown, Variable domains assembled from FR and CDR entries) VH: QVQLQQSGSELRSPGSSVKLSCKDFDSEVFPITYMNWVRQKPGHGFEWIGDILPSIGRTMYGEKFEDKATLDADTVSNTAYLELNSLTSEDSAIYYCARSEGYLLAYWGQGTLVTVSA VL: DVVMTQTPLSLPVSLGDQASISCRSSQSLVHSTGNIYLHWYLQKPGQSPKLLIYKVSNRFZGVPDRFSGSGSGTDFTLKISRVEAEDLGVYFCSQNTHVPYTFGGGTKLEIK shows Percent Siglec-7 Surface Expression, DCs below 20%.
Marked response: F

Exam item: Take the binder anti-Siglec-7 antibody 7A3 (antibody, V domains shown, Variable domains assembled from FR and CDR entries; VL FR1 and VH FR1 hold Z and VH FR1 looks shortened at its N-terminus) VH: LVZSGGALVKPGGSLKLSCAASGFTFSNYAMSWVRQTPEKRLEWVASISSGGSYNYYPDSVKGRFTISRDNARNTLYLQMSSLRSKDTAMYYCASQSYGSSYWYFDVWGAGTTVTVSS VL: DIQMTQZPATLSVTPGDRVSLSCRASQSISEYLHWYHQKSHESPRLLIKFASQSICGIPSRFSGSGSGSDFTLTINSVEPEDVGVYYCQNGHNFPYTFGGGTKLEIK and say whether its Percent Siglec-7 Surface Expression, DCs is less than 20%.
Marked response: T

Exam item: Would you kindly verify if Percent Siglec-7 Surface Expression, DCs of anti-Siglec-7 antibody 10G8 (antibody, V domains shown, Variable domains assembled from FR and CDR entries) VH: EVKLVEFGGALVKPGGSLKLSCAALGFTFSTYAMFRVRQTPEKREEGVASISSGGRYTYYPDSAKDRHPIFRDNARNTLYLQMSSLRSKDTAMYYCVRHSYGSSYWYLDVWGAGTTVTVSS VL: DIQMTQFPATLSGTPGDRVZLSRRASQSIREYLHWYQQKSHESPRLZIKFASQSICGIPSRFSGSGSGSDFTLSINTVEPEDVGVYYCQKAHNFPYTFGGGTKLEIK is strictly less than 20%?
Marked response: T

Exam item: Item anti-Siglec-7 antibody 7F12 (antibody, V domains shown, Variable domains assembled from FR and CDR entries) VH: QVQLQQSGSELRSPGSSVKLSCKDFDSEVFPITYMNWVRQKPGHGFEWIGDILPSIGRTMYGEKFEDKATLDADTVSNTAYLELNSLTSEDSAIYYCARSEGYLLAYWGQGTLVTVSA VL: DVLMTQTPLSLPVSLGDQASISCRSSQSLVHSTGNTYLHWYLQKPGQSPKLLIYKVSNRFSGVPDRFSGSGAGTDFTLKISRVEAEDLGVYFCSQNTHVPYTFGGGTKLEIK : Percent Siglec-7 Surface Expression, DCs beneath 20%, strictly?
Marked response: F
